These measurements were taken from ChEMBL document CHEMBL2434921.

# Tested on: NUGC-3
# assay_method_text: Growth inhibition of human NUGC3 cells after 48 hrs by SRB assay
# Type: functional
# condition_context: NUGC-3, 48 h
outcome_measure: GI50 (µM)
Give the number; µM is assumed, so skip it.

[in] Find the measured GI50 of "CCCCCCCCCCCCCCCCS(=O)(=O)NCCC[N+](C)(C)C" and report it.
[out] 0.56

[in] State its GI50: "CCCCCCCCCCCCCCCC(=O)N1CC[N+](C)(C)CC1"
[out] 0.29

[in] Kindly indicate its recorded GI50. Item: "CCCCCCCCCCCCCCS(=O)(=O)NCC(C)(C)C[N+](C)(C)C"
[out] 0.32

[in] Provide only the value of recorded GI50 for "CCCCCCCCCCCCCCCCS(=O)(=O)NCCC[N+](C)(C)CC"
[out] 0.32

[in] Supply measured GI50 of "CCCCCCCCCCCCCCS(=O)(=O)N(C)CC[N+](C)(C)CC" in your reply.
[out] 0.3

***
[in] Note down GI50 recorded for "CCCCCCCCCCCCCCCCS(=O)(=O)N(C)CCC[N+](C)(C)CC"
[out] 0.2

====

The reader will find reported growth, % of control at 1 µM values listed item by item below.
# Tested on: NUGC-3
# assay_method_text: Growth of human NUGC3 cells at 1 uM after 48 hrs by SRB assay
# condition_context: NUGC-3, 48 h
// units = %; emit number, no label

Check out these entries, answers already filled in.
[in] Answer with the recorded growth, % of control at 1 µM for the compound listed here: "CCCCCCCCCCCCCCCCS(=O)(=O)N(C)CC[N+](C)(C)C"
[out] 32.2

[in] Annotate the compound "C=CC[N+](CC)(CC)CCN(C)S(=O)(=O)CCCCCCCCCCCCCC" with its measured growth, % of control at 1 µM.
[out] 14.3

[in] Please give the documented growth, % of control at 1 µM of "CCCCCCCCCCCCCCS(=O)(=O)N(C)CC[N+](C)(C)CC"
[out] 43.3

[in] Input "CCCCCCCCCCCCCCCCS(=O)(=O)NCCC[N+](C)(C)CC" , output reported growth, % of control at 1 µM.
[out] 41.8

Continuing:
[in] Assign growth, % of control at 1 µM to the following record: "CCCCCCCCCCCCCCCCS(=O)(=O)N(C)CC[N+](CC)(CC)CC"
[out] 19.6

[in] Dear colleague, please send me the reported growth, % of control at 1 µM for "CCCCCCCCCCCCCCCCS(=O)(=O)N(C)CCC[N+](C)(C)C" when you can.
[out] 25

[in] Answer with reported growth, % of control at 1 µM of "C=CC[N+](CC)(CC)CCN(C)S(=O)(=O)CCCCCCCCCCCCCCCC"
[out] 34.9

[in] // Input: "CCCCCCCCCCCCCCCCS(=O)(=O)NCC(C)(C)C[N+](C)(C)C" . Output its growth, % of control at 1 µM only.
[out] 33.6

[in] State, in one line, measured growth, % of control at 1 µM of "CCCCCCCCCCCCCCS(=O)(=O)NCCC[N+](C)(C)C"
[out] 43.1

[in] Retrieve growth, % of control at 1 µM measured for "CCCCCCCCCCCCCCCCS(=O)(=O)N(C)CC[N+](C)(CC)CC" and print it.
[out] 30.2

====

# System: ACHN
# assay_method_text: Growth of human ACHN cells at 0.3 uM after 48 hrs by SRB assay
outcome_measure: growth, % of control at 0.3 µM (%)
# number only, unit % dropped from output

Below, 2 molecules whose answers are already recorded.
[in] // fetch growth, % of control at 0.3 µM for "CCCCCCCCCCCCCCS(=O)(=O)N(C)CCC[N+](C)(C)CC" ; system: ACHN
[out] 78.5

[in] Report measured growth, % of control at 0.3 µM on ACHN; entry: "C=CC[N+](C)(C)CCN(C)S(=O)(=O)CCCCCCCCCCCCCC"
[out] 101

Further cases:
[in] Provide the reported growth, % of control at 0.3 µM (system: ACHN) for "CCCCCCCCCCCCCCCCS(=O)(=O)N(C)CCC[N+](C)(C)C"
[out] 97.6

====

# System: NCI-H23
# assay_method_text: Growth inhibition of human NCI-H23 cells at 3 uM after 48 hrs by SRB assay; values are per cent of control
# condition_context: NCI-H23, 48 h
Recorded growth, % of control at 3 µM determines the label; the label ranges are range A: < 20%; range B: ≥ 20% and < 30%; range C: ≥ 30%

# example entries with known answers
[in] Classify this compound: "CCCCCCCCCCCCCCS(=O)(=O)N(C)CCC[N+](C)(C)CC"
[out] range A

[in] Categorize the following entry: "CCCCCCCCCCCCCCCCS(=O)(=O)NCCC[N+](C)(C)C"
[out] range C

[in] Please report the category associated with "CCCCCCCCCCCCCCCCS(=O)(=O)N(C)CC[N+](CC)(CC)CC" , nothing else.
[out] range A

[in] Consider "CCCCCCCCCCCCCCS(=O)(=O)NCCC[N+](C)(C)CC" . To which growth, % of control at 3 µM class does it belong?
[out] range A

[in] Class (by measured growth, % of control at 3 µM) for "CCCCCCCCCCCCCCS(=O)(=O)NCCC[N+](C)(C)C"
[out] range A

More entries:
[in] Band for the recorded growth, % of control at 3 µM of "CCCCCCCCCCCCCCCCS(=O)(=O)N(C)CC[N+](C)(C)CC" ?
[out] range C

[in] Lab note: sort "CCCCCCCCCCCCCCCCS(=O)(=O)NCCC[N+](C)(C)CC" into the matching growth, % of control at 3 µM band.
[out] range C

[in] Field: class (growth, % of control at 3 µM) — entry: "CCCCCCCCCCCCCCS(=O)(=O)N(C)CC[N+](CC)(CC)CC"
[out] range A

[in] Which bin should I file "CCCCCCCCCCCCCCS(=O)(=O)NCC(C)(C)C[N+](C)(C)CC" under?
[out] range B

[in] Categorize the following entry: "CCCCCCCCCCCCCCCCS(=O)(=O)N(C)CCC[N+](C)(C)CC"
[out] range A

[in] Class for "C=CC[N+](CC)(CC)CCN(C)S(=O)(=O)CCCCCCCCCCCCCC" ?
[out] range A

====

# System: ACHN
# assay_method_text: Growth inhibition of human ACHN cells at 3 uM after 48 hrs by SRB assay; values are per cent of control
outcome_measure: growth, % of control at 3 µM (%)
Numeric answer only, unit % assumed.

[in] State its growth, % of control at 3 µM for this molecule: "CCCCCCCCCCCCCCCCS(=O)(=O)N(C)CC[N+](C)(C)CC"
[out] 52.7

[in] Read the entry "CCCCCCCCCCCCCCS(=O)(=O)N(C)CC[N+](C)(C)C" and write its reported growth, % of control at 3 µM.
[out] 47.2

[in] Hello, please tell me recorded growth, % of control at 3 µM for this one: "C=CC[N+](CC)(CC)CCN(C)S(=O)(=O)CCCCCCCCCCCCCCCC"
[out] 50.4

[in] Entry "CCCCCCCCCCCCCCCCS(=O)(=O)NCCC[N+](C)(C)C" needs its growth, % of control at 3 µM filled in; supply it.
[out] 80.3

[in] Output growth, % of control at 3 µM of "CCCCCCCCCCCCCCCCS(=O)(=O)N(C)CCC[N+](C)(C)C"
[out] 36.3

Below: the item to evaluate.
[in] Find the measured growth, % of control at 3 µM of "CCCCCCCCCCCCCCCCS(=O)(=O)N(C)CC[N+](C)(C)C" and report it.
[out] 51.4

====

# Tested on: ACHN
# assay_method_text: Growth inhibition of human ACHN cells at 1 uM after 48 hrs by SRB assay; values are per cent of control
The recorded growth, % of control at 1 µM of each item maps onto one of these classes: low: < 70%; medium: ≥ 70% and < 80%; high: ≥ 80%

[in] Form field 'band' for "CCCCCCCCCCCCCCCCS(=O)(=O)N(C)CCC[N+](C)(C)CC"
[out] low

[in] Just checking, what class would you give "CCCCCCCCCCCCCCCCS(=O)(=O)NCC(C)(C)C[N+](C)(C)CC" here?
[out] high

Further cases:
[in] Class for "C=CC[N+](C)(C)CCN(C)S(=O)(=O)CCCCCCCCCCCCCCCC" ?
[out] high

[in] # bin label for "CCCCCCCCCCCCCCS(=O)(=O)NCCC[N+](C)(C)CC"
[out] high

[in] Exercise: read the entry "CCCCCCCCCCCCCCS(=O)(=O)N(C)CC[N+](C)(C)CC" and state which class it falls under.
[out] medium

[in] Any idea which band "CCCCCCCCCCCCCCS(=O)(=O)N(C)CC[N+](C)(CC)CC" is in?
[out] high

[in] Please classify: "CCCCCCCCCCCCCCCCS(=O)(=O)N(C)CCC[N+](C)(C)C"
[out] medium

[in] Bin? "CCCCCCCCCCCCCCS(=O)(=O)N(C)CCC[N+](C)(C)CC"
[out] low

[in] Hey, which category is "CCCCCCCCCCCCCCCCS(=O)(=O)NCC(C)(C)C[N+](C)(C)C" in, do you know?
[out] high

[in] Just checking, what class would you give "C=CC[N+](CC)(CC)CCN(C)S(=O)(=O)CCCCCCCCCCCCCC" here?
[out] medium

[in] Given "CCCCCCCCCCCCCCCCS(=O)(=O)NCCC[N+](C)(C)CC" , name the class its growth, % of control at 1 µM places it in.
[out] medium

[in] Which band does "CCCCCCCCCCCCCCCCS(=O)(=O)NCCC[N+](C)(C)C" fall in?
[out] high

[in] Hi there! Could you help me figure out the category for "CCCCCCCCCCCCCCS(=O)(=O)N(C)CCC[N+](C)(C)C" please?
[out] low

[in] Just checking, what class would you give "CCCCCCCCCCCCCCCCS(=O)(=O)N(C)CC[N+](C)(CC)CC" here?
[out] medium

[in] Please indicate the class for "CCCCCCCCCCCCCCS(=O)(=O)NCCC[N+](C)(C)C" based on its growth, % of control at 1 µM.
[out] high
